System: C. albicans 256 HUSI-PUJ
Assay type: cell-based, Candida albicans
measurement setup: 256 HUSI-PUJ, 24 h
Method: Antifungal susceptibility testing was carried out using the broth microdilution (BMD) method, following the CLSI M27-A3 guidelines with slight modifications. Briefly, cells (0.5–2.5 × 10^3 CFU/mL) were incubated with peptides (200, 100, 50, 25, 12.5, and 6.25 µg/mL) at 37 °C for 48 h. […] In order to verify that the peptides were able to kill the yeast cells, the plates were also evaluated for minimum fungicidal concentration (MFC). […]
Non-standard residues stand in square brackets, D forms with d. Residues, ends and D or L forms follow the SMILES beside them. Ahx = NCCCCCC(=O)O
Can you tell me MFC for the items I'm about to list?
Answers are plain numbers, in µM.

CC(C)C[C@H](NC(=O)[C@H](CC(C)C)NC(=O)[C@H](CCCNC(=N)N)NC(=O)[C@H](CCCNC(=N)N)NC(=O)[C@H](CC(C)C)NC(=O)[C@H](CC(C)C)NC(=O)[C@H](CCCNC(=N)N)NC(=O)CCCCCNC(=O)[C@H](CCCCN)NC(=O)[C@H](Cc1c[nH]c2ccccc12)NC(=O)[C@H](CCC(N)=O)NC(=O)[C@H](Cc1c[nH]c2ccccc12)NC(=O)[C@H](CCCCN)NC(=O)[C@@H](N)CCCCN)C(=O)N[C@@H](CCCNC(=N)N)C(N)=O [C6] (H-KKWQWK[Ahx]RLLRRLLR-NH2); 48

Here is the next item to consider.
Fill in the recorded MFC for this compound, with C. albicans 256 HUSI-PUJ as test system: CC(C)C[C@H](NC(=O)[C@H](CC(C)C)NC(=O)[C@H](CCCCN)NC(=O)[C@H](CCCCN)NC(=O)[C@H](CC(C)C)NC(=O)[C@H](CC(C)C)NC(=O)[C@H](CCCCN)NC(=O)CCCCCNC(=O)[C@H](CCCNC(=N)N)NC(=O)[C@H](Cc1c[nH]c2ccccc12)NC(=O)[C@H](CCC(N)=O)NC(=O)[C@H](Cc1c[nH]c2ccccc12)NC(=O)[C@H](CCCNC(=N)N)NC(=O)[C@@H](N)CCCNC(=N)N)C(=O)N[C@@H](CCCCN)C(N)=O [C5] (H-RRWQWR[Ahx]KLLKKLLK-NH2) 97
